pIC50: −log10 of the molar value.
The listing below reports pIC50 for compounds tested on Cytoplasmic tyrosine-protein kinase BMX (Homo sapiens).
Sequence (P51813 whole entry): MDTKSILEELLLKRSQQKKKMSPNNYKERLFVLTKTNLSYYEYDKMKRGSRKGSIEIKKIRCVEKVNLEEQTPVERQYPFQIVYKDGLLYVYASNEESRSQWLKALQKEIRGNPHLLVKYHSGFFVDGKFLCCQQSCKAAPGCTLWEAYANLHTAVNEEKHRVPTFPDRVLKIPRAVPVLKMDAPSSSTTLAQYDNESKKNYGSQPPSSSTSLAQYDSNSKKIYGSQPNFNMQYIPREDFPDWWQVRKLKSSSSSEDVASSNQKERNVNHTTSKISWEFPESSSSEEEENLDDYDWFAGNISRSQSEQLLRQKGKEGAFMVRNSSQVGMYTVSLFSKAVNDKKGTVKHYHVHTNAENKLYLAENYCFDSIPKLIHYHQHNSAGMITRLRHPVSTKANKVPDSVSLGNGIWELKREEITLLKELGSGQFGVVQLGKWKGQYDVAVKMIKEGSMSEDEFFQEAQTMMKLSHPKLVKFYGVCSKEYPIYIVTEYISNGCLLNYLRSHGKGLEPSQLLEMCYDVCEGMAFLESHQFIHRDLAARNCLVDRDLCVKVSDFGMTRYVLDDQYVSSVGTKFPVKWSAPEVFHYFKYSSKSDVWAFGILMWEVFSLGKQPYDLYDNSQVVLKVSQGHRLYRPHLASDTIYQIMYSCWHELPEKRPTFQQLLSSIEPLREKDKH
value-type: pIC50

I: COCC(=O)N1CCC[C@@H](c2nc(-c3ccc(C(=O)Nc4cc(C(F)(F)F)ccn4)cc3F)c3c(N)nccn23)C1
II: CC(C)C(=O)N1CCC[C@@H](c2nc(-c3ccc(C(=O)Nc4cc(C(F)(F)F)ccn4)cc3F)c3c(N)nccn23)C1
Challenge: Input pair: I , II . Output: entry with lower pIC50. # answer = label of selected item
Response given: II

----------
Species: Homo sapiens
method-summary: Selectivity ratio of IC50 for SRMS (unknown origin) to IC50 for BTK (unknown origin)
value-type: Ratio IC50

Please review the entries below; each comes with its answer.
>  <molecular-string>
Nc1nccn2c([C@@H]3CCCN(C4CCOCC4)C3)nc(-c3ccc(C(=O)Nc4cc(C(F)(F)F)ccn4)cc3F)c12

>  <Ratio IC50>
60

$$$$
>  <molecular-string>
COCC(=O)N1CCO[C@@H](c2nc(-c3ccc(C(=O)Nc4cc(C(F)(F)F)ccn4)cc3F)c3c(N)nccn23)C1

>  <Ratio IC50>
205

$$$$

a: CC(C)C(=O)N1CCO[C@@H](c2nc(-c3ccc(C(=O)Nc4cc(C(F)(F)F)ccn4)cc3F)c3c(N)nccn23)C1
b: COCC(=O)N1CCC[C@@H](c2nc(-c3ccc(C(=O)Nc4cc(C(F)(F)F)ccn4)cc3F)c3c(N)nccn23)C1
Challenge: Of a and b , which shows the smaller Ratio IC50 value? Could you answer with the label of the item you picked?
Response given: b
(b: 86, a: 234)

----------
pIC50: −log10 of the molar value.
pIC50, Protein-tyrosine kinase 6 (Homo sapiens, UniProt Q13882), per-entry values.
value-type: pIC50

>  <molecular-string>
Nc1nccn2c([C@@H]3CCCN(C4CCOCC4)C3)nc(-c3ccc(C(=O)Nc4cc(C(F)(F)F)ccn4)cc3F)c12

>  <pIC50>
7.32

$$$$
>  <molecular-string>
COCC(=O)N1CCO[C@@H](c2nc(-c3ccc(C(=O)Nc4cc(C(F)(F)F)ccn4)cc3F)c3c(N)nccn23)C1

>  <pIC50>
7.11

$$$$

P: COCC(=O)N1CCC[C@@H](c2nc(-c3ccc(C(=O)Nc4cc(C(F)(F)F)ccn4)cc3F)c3c(N)nccn23)C1
Q: CC(C)C(=O)N1CCO[C@@H](c2nc(-c3ccc(C(=O)Nc4cc(C(F)(F)F)ccn4)cc3F)c3c(N)nccn23)C1
Challenge: # compare pIC50 for P vs Q ; return the one with the smaller value Give the label of your selection.
Response given: Q

----------
Organism: Homo sapiens
method-summary: Selectivity ratio of IC50 for LCK (unknown origin) to IC50 for BTK (unknown origin)
value-type: Ratio IC50

P: COCC(=O)N1CCC[C@@H](c2nc(-c3ccc(C(=O)Nc4cc(C(F)(F)F)ccn4)cc3F)c3c(N)nccn23)C1
Q: Nc1nccn2c([C@@H]3CCCN(C4CCOCC4)C3)nc(-c3ccc(C(=O)Nc4cc(C(F)(F)F)ccn4)cc3F)c12
R: COCC(=O)N1CCO[C@@H](c2nc(-c3ccc(C(=O)Nc4cc(C(F)(F)F)ccn4)cc3F)c3c(N)nccn23)C1
S: CC(C)C(=O)N1CCO[C@@H](c2nc(-c3ccc(C(=O)Nc4cc(C(F)(F)F)ccn4)cc3F)c3c(N)nccn23)C1
Challenge: Give the descending Ratio IC50 ranking for the 4 molecules listed above. // format: requested-order list of labels
Response given: S, R, P, Q
(S: 227, R: 75, P: 51, Q: 9)

The values you see were collected from ChEMBL document CHEMBL4052776.
